Provenance of the data: the supplement of paper PMC10732440

test system: Caenorhabditis elegans N2 infected with Nematocida parisii ERTm1; experiment: progeny production relative to DMSO uninfected control; higher = more progeny despite microsporidia infection (inhibition of infection with low host toxicity); conditions: infection time 6 days; 100 µM
endpoint name: progeny production
Record the result as number plus unit.

Past entries and their recorded results:
NC(=O)c1ccc(I)c([N+](=O)[O-])c1	10%
Nc1ccc(-c2nc3cc(C(F)(F)F)ccc3n2C23CC4CC(CC(C4)C2)C3)cc1	17%

Input CCC(C)NCC(O)Cn1c2ccc(Cl)cc2c2cc(Cl)ccc21 (stereo unspecified) , output reported progeny production. 6.85%

Tell me progeny production reported for "Clc1cccc(-c2nnc(-c3ccccc3)o2)c1" 4.24%

Please report the measured progeny production for "O=C(c1cc(O)nc2ccccc12)N1CCN(c2ccccc2)CC1" 9.85%

Read off the recorded progeny production for COC(=O)Nc1nc2cc([S+]([O-])c3ccccc3)ccc2[nH]1 (stereo unspecified) 23%

###

test system: Caenorhabditis elegans N2 infected with Nematocida parisii ERTm1; assay: progeny production relative to DMSO uninfected control; higher = more progeny despite microsporidia infection (inhibition of infection with low host toxicity); conditions: infection time 6 days; 100 µM
endpoint name: progeny production (%)
// note: answer is a bare numeric in %

Illustrative cases are given below, each with its answer.
NC(=O)C(c1ccccc1)(c1ccccc1)[C@H]1CCCN(CCc2ccc3c(c2)CCO3)C1	15.2
CC(C)(C)NC(=O)N[C@H](C(=O)N1C[C@H]2[C@@H]([C@H]1C(=O)NC(CC1CCC1)C(=O)C(N)=O)C2(C)C)C(C)(C)C (some centres undefined)	7.69
CCCCOC(=O)Nc1cc2nc(C3CCCCC3)[nH]c2cc1N(CC)CC	13.5
CCCCc1ccc(-c2cc(C(=O)O)cc(-c3ccc(Cl)cc3)n2)cc1	9.87
Cc1onc(-c2ccccc2Cl)c1C(=O)N[C@@H]1C(=O)N2[C@@H]1SC(C)(C)[C@@H]2C(=O)O	19.1

// fetch progeny production given entry "COc1nc2ccc(Br)cc2cc1[C@@H](c1ccccc1)[C@@](O)(CCN(C)C)c1cccc2ccccc12" 14.3

Given the molecule "CNc1nc(=O)[nH]cc1F" , write its reported progeny production. 12.9

Recall and state the measured progeny production for "O[C@@](Cn1cnnn1)(c1ccc(F)cc1F)C(F)(F)c1ccc(-c2ccc(OCC(F)(F)F)cc2)cn1" . 11.8

Specify measured progeny production for "Nc1nc(O)c2ncn([C@@H]3O[C@H](CO)[C@@H](O)[C@H]3F)c2n1" . 9.71

###

system: Caenorhabditis elegans N2 infected with Nematocida parisii ERTm1; assay: progeny production relative to DMSO uninfected control; higher = more progeny despite microsporidia infection (inhibition of infection with low host toxicity); settings: infection time 6 days; 100 µM
Binary call on progeny production: fulfilled from 10% upward, not fulfilled beneath that.

Reported progeny production at or above 10%? "C=CCc1cc(Cc2cnc(N)nc2N)cc(OC)c1O" fulfilled

Dear colleague, could you confirm whether "c1ccc(-c2nnc3c4ccccc4c(N4CCNCC4)nn23)cc1" has progeny production at or above 10%? fulfilled

Would you say "O=C(Cn1cnc2ccccc2c1=O)Nc1ccccc1" shows progeny production at minimum 10%? not fulfilled

###

tested on: Caenorhabditis elegans N2 infected with Nematocida parisii ERTm1; assay: progeny production relative to DMSO uninfected control; higher = more progeny despite microsporidia infection (inhibition of infection with low host toxicity); settings: infection time 6 days; 40 µM
Catalogue of progeny production readings, one per entry.
Please append the unit to your numeric answer.

Worked set:
COc1cc2c(O)c3c(c(-c4ccc5c(c4)OCO5)c2cc1OC)C(=O)OC3	4.37%
NC(=O)c1c(N)sc2c1CCCCC2	3.71%
NC(=O)c1ccc(I)c([N+](=O)[O-])c1	1.54%
COc1ccc2nc(-c3ccccc3)cc(O)c2c1	10.7%
CN(C/C=C/C#CC(C)(C)C)Cc1cccc2ccccc12	5.74%

For the compound "O=C(O)c1cc(-c2ccc(Br)cc2)nc2ccc(Cl)cc12" , report progeny production. 4.63%

Identify measured progeny production associated with "O=C(CCCC(F)(F)F)N1CCC(c2nc(-c3nccs3)no2)CC1" 5.21%

###

system: Caenorhabditis elegans N2 infected with Nematocida parisii ERTm1; experiment: progeny production relative to DMSO uninfected control; higher = more progeny despite microsporidia infection (inhibition of infection with low host toxicity); details: infection time 6 days; 40 µM
endpoint name: progeny production (%)
Could you give me the number in %? Just the number is fine.

Cc1onc(-c2ccccc2Cl)c1C(=O)N[C@@H]1C(=O)N2[C@@H]1SC(C)(C)[C@@H]2C(=O)O	2.76
O=C(Nc1ccccc1)N(Cc1cc(Br)ccc1O)c1ccc(F)cc1	3.85

Identify measured progeny production corresponding to "CC(=O)Nc1cc(NS(=O)(=O)c2ccc(Cl)cc2)cc2c(Cl)[nH]nc12" 5.97

###

test system: Caenorhabditis elegans N2 infected with Nematocida parisii ERTm1; assay: progeny production relative to DMSO uninfected control; higher = more progeny despite microsporidia infection (inhibition of infection with low host toxicity); conditions: infection time 6 days; 100 µM
endpoint name: progeny production (%)
Please give a number only; it is taken to be in %.

O=C(CSc1nnc(Br)n1-c1ccc(C2CC2)c2ccccc12)Nc1ccc(C(=O)O)cc1Cl	15.1

Please list progeny production recorded for the molecule CCc1cc(Cc2cnc(N)nc2N)cc2c1N(C)CCC2C (stereo not drawn) 4.65

Provide progeny production value for the following molecule: Fc1cccc(Cl)c1C1CC(c2ccc(Cl)cc2)Nc2nnnn21 (stereo not drawn) 7.47

###

tested on: Caenorhabditis elegans N2 infected with Nematocida parisii ERTm1; test: progeny production relative to DMSO uninfected control; higher = more progeny despite microsporidia infection (inhibition of infection with low host toxicity); conditions: infection time 6 days; 100 µM
Criterion: progeny production meeting or surpassing 10%. Met: TRUE. Not met: FALSE.

Consider the worked cases shown below.
O=[N+]([O-])c1cn2c(n1)OC[C@@H](OCc1ccc(OC(F)(F)F)cc1)C2	TRUE
CN(C(=O)C1(c2ccc(Cl)cc2)CCC1)c1ccccc1	TRUE
CC(=O)Oc1ccccc1C(=O)Nc1ncc([N+](=O)[O-])s1	TRUE
CC[C@@]1(O)C(=O)OCc2c1cc1n(c2=O)Cc2cc3c([N+](=O)[O-])cccc3nc2-1	FALSE
FC(F)(F)Oc1ccc(Nc2ccc3cccc(Cl)c3n2)cc1	TRUE

Is progeny production at least 10%? Consider "O=c1cc(NCCCN[C@@H]2CCOc3c(Br)cc(Br)cc32)[nH]c2ccsc12" FALSE

Please indicate if the recorded progeny production for "Cn1cncc1[C@@](N)(c1ccc(Cl)cc1)c1ccc2c(c1)c(-c1cccc(Cl)c1)cc(=O)n2C" meets or exceeds 10%. FALSE

Could you please find out whether "Cc1cc(CCCOc2c(C)cc(-c3noc(C(F)(F)F)n3)cc2C)on1" has progeny production that meets 10% or exceeds it? TRUE

Decide: is the reported value of progeny production for "O=C(Nc1ccc(N2CCN(C(=O)c3ccccc3)CC2)cc1)c1ccc2c(c1)OCO2" equal to or greater than 10%? TRUE

State whether the measured progeny production reaches 10%, counting equality as reaching it, for "CCCCCCCCCN1C[C@@H](O)[C@H](O)[C@@H](O)[C@@H]1CO" TRUE

Is progeny production for "COc1ccc(SC(=O)N[C@H](CCC(=O)O)C(=O)O)cc1" at or above 10%? TRUE

Decide: progeny production of "OB1OCc2c1ccc(Cl)c2F" >= 10%? TRUE

Is it the case that "O=C(O)c1sccc1S(=O)(=O)n1ccc2cc(Br)ccc21" has progeny production reaching or exceeding 10%? FALSE

State whether the measured progeny production reaches 10%, counting equality as reaching it, for "O=[N+]([O-])c1cn(Cc2nc(O)nc(O)c2Br)cn1" FALSE

Kindly determine if progeny production recorded for "CN1CCN(c2ccc3[nH]c(-c4ccc5[nH]c(-c6ccc(O)cc6)nc5c4)nc3c2)CC1" is above or exactly 10%. TRUE

###

tested on: Caenorhabditis elegans N2 infected with Nematocida parisii ERTm1; experiment: progeny production relative to DMSO uninfected control; higher = more progeny despite microsporidia infection (inhibition of infection with low host toxicity); details: infection time 6 days; 40 µM
endpoint name: progeny production (%)
# output: bare number, implied unit %

# annotated cases, reported progeny production shown
Cc1nc2ccc(Oc3ccccc3)cc2c2c1CCN2CCc1ccccc1	4.79
COc1ccc2cc3[n+](cc2c1OCCN(CCn1cncn1)Cc1ccc(F)cc1F)CCc1cc2c(cc1-3)OCO2	5.91
Cc1cccc(CC(=O)N[C@H]2CCOC2=O)c1	3.04
CC(C)Nc1nc2cc(Cl)c(Cl)cc2n1[C@H]1O[C@@H](CO)[C@H](O)[C@@H]1O	3.85
NC(=S)N/N=C/c1ncccc1N	8.43

Give a short answer stating reported progeny production for "O=C(NNC(=S)Nc1ccc(Cl)cc1)c1ccncc1" . 2.76

# return recorded progeny production for input "Cc1c(F)cccc1NC(=O)Nc1ccc(Cl)c(S(=O)(=O)[C@H]2CCCNC2)c1O" 8.9

Input "CC(=O)NC[C@H]1CN(c2ccc(N3CCSCC3)c(F)c2)C(=O)O1" , output reported progeny production. 6.06

Identify measured progeny production associated with "Nc1nc(=O)[nH]cc1F" 5.01

Provide only the value of recorded progeny production for "Clc1cccc(-c2nnc(-c3ccccc3)o2)c1" 1.33

Please give the documented progeny production of "CCOC(=O)N[C@@H]1CC[C@@H]2[C@@H](C1)C[C@H]1C(=O)O[C@H](C)[C@H]1[C@H]2/C=C/c1ccc(-c2cccc(F)c2)cn1" 4.47

Quickly give me recorded progeny production for "CN(C)CC(=O)Nc1ccc2[nH]c(=O)c3ccccc3c2c1" 3.86

Look up progeny production of "CO[C@@]1(NC(=O)Cc2cccs2)C(=O)N2C(C(=O)O)=C(COC(N)=O)CS[C@@H]21" and report it. 8.96

Could you please provide reported progeny production for "CC[C@H](CO)Nc1nc(NCc2ccccc2)c2ncn(C(C)C)c2n1" ? Thanks! 4.15

Return progeny production (reported value) for this molecule: Nc1nc(NC2Cc3ccc(F)cc3C2)nc(N2CCCCC2)n1 (stereo not given) 5.65

Annotate the molecule "COc1cc(NS(=O)(=O)c2ccc(C)cc2)c2ncccc2c1" with its measured progeny production. 5.38

Note down progeny production recorded for "Nc1nc(C(F)(F)F)cc2c1[nH]c(=O)n2Cc1ccccc1" 2.69
